Reported FACS-Seq fitted mean (log10) values for a set of variants
B1: library; a variant is named by its letters at N, in order (parent)
chain: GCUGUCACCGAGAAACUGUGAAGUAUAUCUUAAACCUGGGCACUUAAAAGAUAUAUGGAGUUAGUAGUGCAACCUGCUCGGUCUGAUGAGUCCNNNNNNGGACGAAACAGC

- Variants of: B1
- assay notes: FACS-Seq fitted mean relative fluorescence mCherry/BFP with ligand (log10 relative fluorescence); HEK293T; ligand: cyclic di-GMP (c-di-GMP-II aptamer); ligand concentration (+) FACS-Seq: 1 mM; higher = higher reporter protein expression
- test context: ligand present: yes

residue codes	FACS-Seq fitted mean (log10)
GCUGUCACCGAGAAACUGUGAAGUAUAUCUUAAACCUGGGCACUUAAAAGAUAUAUGGAGUUAGUAGUGCAACCUGCUCGGUCUGAUGAGUCCUGCGAGGGACGAAACAGC [UGCGAG]	-0.177
GCUGUCACCGAGAAACUGUGAAGUAUAUCUUAAACCUGGGCACUUAAAAGAUAUAUGGAGUUAGUAGUGCAACCUGCUCGGUCUGAUGAGUCCUGAGUGGGACGAAACAGC [UGAGUG]	0.259
GCUGUCACCGAGAAACUGUGAAGUAUAUCUUAAACCUGGGCACUUAAAAGAUAUAUGGAGUUAGUAGUGCAACCUGCUCGGUCUGAUGAGUCCUAAAUAGGACGAAACAGC [UAAAUA]	-0.139
GCUGUCACCGAGAAACUGUGAAGUAUAUCUUAAACCUGGGCACUUAAAAGAUAUAUGGAGUUAGUAGUGCAACCUGCUCGGUCUGAUGAGUCCCCCAAAGGACGAAACAGC [CCCAAA]	0.0473
GCUGUCACCGAGAAACUGUGAAGUAUAUCUUAAACCUGGGCACUUAAAAGAUAUAUGGAGUUAGUAGUGCAACCUGCUCGGUCUGAUGAGUCCCGUUCCGGACGAAACAGC [CGUUCC]	-0.407
GCUGUCACCGAGAAACUGUGAAGUAUAUCUUAAACCUGGGCACUUAAAAGAUAUAUGGAGUUAGUAGUGCAACCUGCUCGGUCUGAUGAGUCCUGUGAUGGACGAAACAGC [UGUGAU]	-0.576
GCUGUCACCGAGAAACUGUGAAGUAUAUCUUAAACCUGGGCACUUAAAAGAUAUAUGGAGUUAGUAGUGCAACCUGCUCGGUCUGAUGAGUCCUCUGGUGGACGAAACAGC [UCUGGU]	-0.0436
GCUGUCACCGAGAAACUGUGAAGUAUAUCUUAAACCUGGGCACUUAAAAGAUAUAUGGAGUUAGUAGUGCAACCUGCUCGGUCUGAUGAGUCCAAACUGGGACGAAACAGC [AAACUG]	-0.194
GCUGUCACCGAGAAACUGUGAAGUAUAUCUUAAACCUGGGCACUUAAAAGAUAUAUGGAGUUAGUAGUGCAACCUGCUCGGUCUGAUGAGUCCUCUAAUGGACGAAACAGC [UCUAAU]	-0.327
GCUGUCACCGAGAAACUGUGAAGUAUAUCUUAAACCUGGGCACUUAAAAGAUAUAUGGAGUUAGUAGUGCAACCUGCUCGGUCUGAUGAGUCCGUGAUGGGACGAAACAGC [GUGAUG]	-0.137
GCUGUCACCGAGAAACUGUGAAGUAUAUCUUAAACCUGGGCACUUAAAAGAUAUAUGGAGUUAGUAGUGCAACCUGCUCGGUCUGAUGAGUCCGUGAAGGGACGAAACAGC [GUGAAG]	-0.278
GCUGUCACCGAGAAACUGUGAAGUAUAUCUUAAACCUGGGCACUUAAAAGAUAUAUGGAGUUAGUAGUGCAACCUGCUCGGUCUGAUGAGUCCAAGGUAGGACGAAACAGC [AAGGUA]	-0.372
GCUGUCACCGAGAAACUGUGAAGUAUAUCUUAAACCUGGGCACUUAAAAGAUAUAUGGAGUUAGUAGUGCAACCUGCUCGGUCUGAUGAGUCCUCGGAUGGACGAAACAGC [UCGGAU]	-0.239
GCUGUCACCGAGAAACUGUGAAGUAUAUCUUAAACCUGGGCACUUAAAAGAUAUAUGGAGUUAGUAGUGCAACCUGCUCGGUCUGAUGAGUCCCAUUAUGGACGAAACAGC [CAUUAU]	-0.353
GCUGUCACCGAGAAACUGUGAAGUAUAUCUUAAACCUGGGCACUUAAAAGAUAUAUGGAGUUAGUAGUGCAACCUGCUCGGUCUGAUGAGUCCCCUAUAGGACGAAACAGC [CCUAUA]	-0.121
GCUGUCACCGAGAAACUGUGAAGUAUAUCUUAAACCUGGGCACUUAAAAGAUAUAUGGAGUUAGUAGUGCAACCUGCUCGGUCUGAUGAGUCCUAAUCGGGACGAAACAGC [UAAUCG]	0.149
GCUGUCACCGAGAAACUGUGAAGUAUAUCUUAAACCUGGGCACUUAAAAGAUAUAUGGAGUUAGUAGUGCAACCUGCUCGGUCUGAUGAGUCCCGGAUAGGACGAAACAGC [CGGAUA]	0.0478
GCUGUCACCGAGAAACUGUGAAGUAUAUCUUAAACCUGGGCACUUAAAAGAUAUAUGGAGUUAGUAGUGCAACCUGCUCGGUCUGAUGAGUCCUCAAUAGGACGAAACAGC [UCAAUA]	-0.157
GCUGUCACCGAGAAACUGUGAAGUAUAUCUUAAACCUGGGCACUUAAAAGAUAUAUGGAGUUAGUAGUGCAACCUGCUCGGUCUGAUGAGUCCCUGCAAGGACGAAACAGC [CUGCAA]	-0.0644
GCUGUCACCGAGAAACUGUGAAGUAUAUCUUAAACCUGGGCACUUAAAAGAUAUAUGGAGUUAGUAGUGCAACCUGCUCGGUCUGAUGAGUCCGCAAGCGGACGAAACAGC [GCAAGC]	-0.514
GCUGUCACCGAGAAACUGUGAAGUAUAUCUUAAACCUGGGCACUUAAAAGAUAUAUGGAGUUAGUAGUGCAACCUGCUCGGUCUGAUGAGUCCCUUAAAGGACGAAACAGC [CUUAAA]	-0.238
GCUGUCACCGAGAAACUGUGAAGUAUAUCUUAAACCUGGGCACUUAAAAGAUAUAUGGAGUUAGUAGUGCAACCUGCUCGGUCUGAUGAGUCCCGGGUGGGACGAAACAGC [CGGGUG]	-0.753
GCUGUCACCGAGAAACUGUGAAGUAUAUCUUAAACCUGGGCACUUAAAAGAUAUAUGGAGUUAGUAGUGCAACCUGCUCGGUCUGAUGAGUCCGCAAAUGGACGAAACAGC [GCAAAU]	-0.484
GCUGUCACCGAGAAACUGUGAAGUAUAUCUUAAACCUGGGCACUUAAAAGAUAUAUGGAGUUAGUAGUGCAACCUGCUCGGUCUGAUGAGUCCUGAUUUGGACGAAACAGC [UGAUUU]	0.343
GCUGUCACCGAGAAACUGUGAAGUAUAUCUUAAACCUGGGCACUUAAAAGAUAUAUGGAGUUAGUAGUGCAACCUGCUCGGUCUGAUGAGUCCCCCGGUGGACGAAACAGC [CCCGGU]	-0.114
GCUGUCACCGAGAAACUGUGAAGUAUAUCUUAAACCUGGGCACUUAAAAGAUAUAUGGAGUUAGUAGUGCAACCUGCUCGGUCUGAUGAGUCCUGGAACGGACGAAACAGC [UGGAAC]	0.11
GCUGUCACCGAGAAACUGUGAAGUAUAUCUUAAACCUGGGCACUUAAAAGAUAUAUGGAGUUAGUAGUGCAACCUGCUCGGUCUGAUGAGUCCGUGGCCGGACGAAACAGC [GUGGCC]	0.366
GCUGUCACCGAGAAACUGUGAAGUAUAUCUUAAACCUGGGCACUUAAAAGAUAUAUGGAGUUAGUAGUGCAACCUGCUCGGUCUGAUGAGUCCGCUGCGGGACGAAACAGC [GCUGCG]	-1.28
GCUGUCACCGAGAAACUGUGAAGUAUAUCUUAAACCUGGGCACUUAAAAGAUAUAUGGAGUUAGUAGUGCAACCUGCUCGGUCUGAUGAGUCCUGGUCGGGACGAAACAGC [UGGUCG]	-0.326
GCUGUCACCGAGAAACUGUGAAGUAUAUCUUAAACCUGGGCACUUAAAAGAUAUAUGGAGUUAGUAGUGCAACCUGCUCGGUCUGAUGAGUCCGCUUCUGGACGAAACAGC [GCUUCU]	0.0598
GCUGUCACCGAGAAACUGUGAAGUAUAUCUUAAACCUGGGCACUUAAAAGAUAUAUGGAGUUAGUAGUGCAACCUGCUCGGUCUGAUGAGUCCCAGAAAGGACGAAACAGC [CAGAAA]	-0.562

The reported measurements were obtained from the supplement of paper PMC6757056.
